Experiment: yeast display, Sf9 membrane polyspecificity reagent, FACS + sequencing; frameworks hold sequencing errors
measure-name: polyreactivity (PSR sort gate)

Previously resolved entries follow.
- residues: "QVQLVESGGGLVQAGGSLRLSCAASGSTFGYYAMGWYRQAPGKEREFVAAITYGDGNTYYADSVKGRFTISRDNAKNTVYLQMNSLKPEDTAVYYCAKYYWAPTGAHGGYGYWGQGTQVTVSS"
  polyreactivity (PSR sort gate): "low polyreactivity"
- residues: "QVQLVESGGGLVQAGGSHGLSCAASGSTFYYNAMGWYRPAPGKERELVARISRSGGSTYADSVKGRFTISRDNAKNTVYLLMNSLKPEDTAVYYCNADAYGTPEFTSYAVRYDHWGQGTQETVSS"
  polyreactivity (PSR sort gate): "low polyreactivity"
- residues: "QVQLVESGGGLVQAGGSLRLSCAASGGIFYHNAMGWYRQAPGKERELVAAISGRGGRTYYADSVKGRFTISRDNAKNTVYLPMNSLKPEDTAVYYCNAVVYSPYRYEYWGQGTQVTVSS"
  polyreactivity (PSR sort gate): "low polyreactivity"
- residues: "QVQLQESGGGLVQAGGSLRLSCAASGTISQEDRMGWYRQAPGKEREFVAAIGLGSNTNYADSLKGRFTISRDNAKNTVYLQMNSLKPEDTAVYYCAVSVWQYSDHVYRGQGTQVTVSS"
  polyreactivity (PSR sort gate): "low polyreactivity"
- residues: "QVQLVESGGGLVQAGGSLRLSCAASGITIGRYAMGWYRQAPGKERELVAAISSTGGRTYYADSVKGRFTISRDNAKNTVYLQMNSLKPEDTAVYYCAKKFAVFVSGYGYWGQGTQVTVSS"
  polyreactivity (PSR sort gate): "high polyreactivity"

Task: Identify the reported polyreactivity (PSR sort gate) for the following entry. QVQLVESGGGLVQAGGSLRLSCAASGRILYRYAMGWYRQAPGKERELVADISWSGGSRYYADSVKGRFTISRDNAKNTVYLQMNSLKPEDTAVYYCAAFRLWYSTFDYWGQGTQVTVSS
Output: high polyreactivity

Task: Quote polyreactivity (PSR sort gate) reported for QVQLVESGGGLVQEGGSLRLSCAASGSTFWANAMGWYRQAPGKERELVAGITWNAGSTYYADSVKGRFTISRVDANNSVYLHMNSLKPEDTAVYYCAAFYHFQGWGPGYISWGQGTQVSVSS please.
Output: low polyreactivity

Task: Give polyreactivity (PSR sort gate) for QVQLVESGGGLVQAGGSLRLSCAASGRTFKKYAMGWYRQAPGKERELVAAISWSGGTTYYADSVKGRFTISRDNAKNTVYLQMNSLKPEDTAVYYCAARVSRTGHGYYYFWGQGTQVTVSS
Output: high polyreactivity

Task: Specify polyreactivity (PSR sort gate) for QVQLVESGGGLVQAGGSLRLSCAASGRIFGQNAMGWYRQAPGKERELVAVISQSGGRTYYADSVKGRFTISRDNAKNTVYLQMNSLKPEDTAVYYCAKGGYQHYWGQGTQVTVSS and stop.
Output: high polyreactivity

Task: // fetch polyreactivity (PSR sort gate) given entry QVQLVESGGGLVQAGGSLRLSCAASGSNFWRKAMGWYRQAPGKERELVAAITCGGSTYYADSVKGRCTISRDNAKNTVYLQMNSLKTEVTAVYYCAAGYSYRYGYWGQGTQVTVSS
Output: low polyreactivity

Task: Annotate the sequence QVQLVESGRGLFQAGGSLRLSCAASGFTGSYAMGWYRQAPGKVREFVAAISYRGSSTYYADSVKGRFTISRDNAKNTVYLQMNSLKPEDTAVYYCNSVHYVLYGDYDYWGQGTQVTVSS with its measured polyreactivity (PSR sort gate).
Output: high polyreactivity

Task: Using known records, supply polyreactivity (PSR sort gate) for QVQLVESGGGLVQEGGSLRLSCAASGRIFNTNAMGWSRQAPGKERELVAGITDSGDSTYDADSVKGRFTISRDNAKNTVYLQMYSLKPEDTGVYYCATDPASPYIYDYWGQGTQVTVSS
Output: low polyreactivity

Task: Look up and state reported polyreactivity (PSR sort gate) for QVQLVESGGGLVQAGGSLRLSCAASGSIFSGNAMGWYRQAPGKERELVAAIDWSGDSTYYADSVKGRFTISRDNAKNTVYLQMNSLKPEDTAVYYCNTVSFSWGYSAYDYWGQGTQVTVSS
Output: low polyreactivity

Task: Output polyreactivity (PSR sort gate) of QVRLVESGGGLVQAGGSLRLSCAASARILPYYPMGWYRQAPGKERELVAAISWSGGRTYYADSVKGRFTISRDNAKNTVYLQMNSLKPEDTAVYYWATRRVTHVPGSSRYDYWGQGTQVTVSS
Output: low polyreactivity

Task: Please supply the value of reported polyreactivity (PSR sort gate) for the item QVQLVESGGGLVQAGGSLRLSCAASGFTFPLNAMGWYRQAPGKERELVAAITNGGTTYYADSVKGRFTISRDNAKNTVYLQMNSLKPEDTAVYYCNAQATPYEGRYDESEYDYWGQGTQVTVSS
Output: low polyreactivity

Task: Indicate the recorded polyreactivity (PSR sort gate) value for this sequence: QVQLVESGGGLVQAGGSLRLSCAASGRTIASYTMGWYRPAPGKERDLVAAISKSGGSTYYADSVKGRFTISRDNSKNTVYLQMNSLKPEDTAVYYCNAVGARVASATGMEYWGQGTQVTVSS
Output: high polyreactivity

Task: Give me measured polyreactivity (PSR sort gate), please, for this sequence: QVQLVESGGGLVQAGGSLRISCAASGRTVAIYAMGWYIKAPGKEREFVAAISWSGGDTYYADSVKGRFTISRDNAKNTVYLQMNSLKPVDPAVYYCAARDNDYEGRDLQYELDYWGQGTQVTVSS
Output: low polyreactivity

Task: Respond only with polyreactivity (PSR sort gate) recorded for QVQLVESGGGLVQAGGSLRLSCAASGRIFGEYAMGWYRQAPGKERELVAAITSSTGSTYYADSVKGRFTISRDNAKNTVYLQMNSLKPEDTAVYYCAAADLKYASYWYDYWGQGTQVTVSS
Output: low polyreactivity

Task: Give polyreactivity (PSR sort gate) for QVQLVESGGGLVQAGGSLRLSCAASGFTLQVYDMGWYRQAPGKERELVADISGSGDSTNYADSVKGRFTISRDNAKNTVYLQMNSLKPEDTAVYYCAAEVRGGYYGYDYWGQGTQVTVSS
Output: low polyreactivity

Task: Specify reported polyreactivity (PSR sort gate) for the sequence shown: QVQLVESGGGLVQAGGSLRLSCAASGRIFYRNTMGWYRQAPGKERELVAPITSSGASTYYADSVKGRFTISRDIAKNTVYLQMNSLKPEDTAVYFCGAQPYVEGTKRYYWGQGTQVTVSS
Output: high polyreactivity

Task: Consider the sequence QVQLVESGGGLVQAGGSLRLSCAASGRTLDVYAMGWSRQAPGKERELVASITSSGARTYYADSVKGRFTISRDNAKNTVYLQMNSLKPEDTAVYYCAARVYRYSASRAYDYWGQGSQVTVSS and give its recorded polyreactivity (PSR sort gate).
Output: high polyreactivity

###

Experiment: yeast display, Sf9 membrane polyspecificity reagent, FACS + sequencing; frameworks hold sequencing errors

- residues: "QVQLVESGGGLVQAGGSLRLTCAASGFTFPYYAMGWYRQAPGKERELVAAIDWTGGSTYYADSVKGRFTISRDNAKNTVYLQMNSLKPEDTAVYYCNRELTSPRRWHVSRAYDYWGQGTQVTVSS"
  polyreactivity (PSR sort gate): "low polyreactivity"
- residues: "QVQLVESGGGLVQAGGSLRLSCAASGRTFSPYAMGWYRQAPGKERELVAAISWIGGSTYYADSVKGRFTISRDNAKNTVYLQMNSLKPEDTAVYYCAADKSVFSDSHAVSMIYRYDYWGQGTQVTVSS"
  polyreactivity (PSR sort gate): "low polyreactivity"

###

Assay: yeast display, Sf9 membrane polyspecificity reagent, FACS + sequencing; frameworks hold sequencing errors
measure-name: polyreactivity (PSR sort gate)

- residues: "QVQLVESGGGLVQAGGSLRLSCAASGSIFYYYAMGWYRQAPGKERELVASISSSGSTNYADSVKGRFTISRDNAKNTVYLLMKRLKPEDTAVYYCYADLSLGSYYSYYAYNSWGQGTQVTVSS"
  polyreactivity (PSR sort gate): "low polyreactivity"
- residues: "QVQLVESGGGLVQAGGSLRLSCAASGYTFHGYAMGWYRQAPGKESELVAVITQRGGSTSYADSVKGRFTISRDNAKITVYLQMNSLKPEDTAVYYCNASAWLVVARTRYGYWGQGTQVTVSS"
  polyreactivity (PSR sort gate): "low polyreactivity"
- residues: "QVQLVESGGGLVQAGGSLRLSCAASGSIFTPNAMGWYRQAPGKERELVAAISSSSDRTSYADSVKGRFTISRDNAKYTVYLQMNSLKPEDTAVYYCAAYSQKRYYWGQGTQVTVSS"
  polyreactivity (PSR sort gate): "high polyreactivity"
- residues: "QVQLEESGGGLDQAGGSLRLSCAASGNIFYGNAMGWYIQAAGKERALVARISGTGRTNYADSVKGRFTISRDNAKNTVYLQMNSLKPEDTAVYYCAKYGYRSRYGYDYWGQGTQVTVTS"
  polyreactivity (PSR sort gate): "high polyreactivity"

Continue with the next sequence.
Task: Read off the recorded polyreactivity (PSR sort gate) for QVQLVESGGGLVQAGGSLRLSCAASGITFDWNAMGWYRQAPGKEREFVASISRGSGGTYYADSVKGRFTISRDNAKNTVYLQMNSLKPEDTAVYYCAAAVGNTDREYDYWGQGTQVTVSS
Output: low polyreactivity

Origin of the recorded values: the nanobody polyreactivity screen of Harvey et al. (2022)
